experiment: in vivo; details: C57BL/6, mouse
Result type: bioavailability (%)

Chem smiles | Result type | Uom | Reported
C[C@@]1(O)[C@H](O)[C@@H](CO)O[C@H]1n1cc(F)c2c(N)ncnc21 | bioavailability | % | 48.8

* * *

assay: in vitro
Result type: CC50

Molecule | Reported
O=C(NN1C(=O)[C@@H]2[C@@H]3C=C[C@@H]([C@H]4C[C@@H]34)[C@@H]2C1=O)c1ccc(C(F)(F)F)cc1 [ST-246] | > 30 µM

* * *

assay: in vivo; conditions: C57BL/6, mouse

Chem smiles | clearance / mL/min/kg
C[C@@]1(O)[C@H](O)[C@@H](CO)O[C@H]1n1cc(F)c2c(N)ncnc21 | 154

* * *

tested on: CPXV; assay: microbe, parasite or virus in culture; format: cell-based, cowpox virus (Brighton Red strain); details: Cowpox virus
pEC50: −log10 of the molar value.
Result type: pEC50

Chem smiles | Reported
C[C@@]1(O)[C@H](O)[C@@H](CO)O[C@H]1n1cc(F)c2c(N)ncnc21 | 5.66

* * *

experiment: in vitro; settings: mouse, plasma

Chem smiles | fraction unbound
C[C@@]1(O)[C@H](O)[C@@H](CO)O[C@H]1n1cc(F)c2c(N)ncnc21 | 0.844

* * *

test: in vivo; details: C57BL/6, mouse
Result type: half-life (h)

Chem smiles | Uom | Reported
C[C@@]1(O)[C@H](O)[C@@H](CO)O[C@H]1n1cc(F)c2c(N)ncnc21 | h | 2.9

src = paper PMC10986512
